Tested on: rainbow trout erythrocytes
assay-name: Membrane lipid inhibition assay of KmTx 2 hemolytic activity
Type: cell-based
test-parameters: 0.001-10 μM sterol or lipid; KmTx 2 0.1, 0.5, 1 μg/ml
Description: To assess the inhibitory effects of exogenous membrane lipids on KmTx 2 hemolytic activity, the following sterols and lipids were tested: cholesterol, ergosterol, gymnodinosterol, and both natural and synthetic phosphatidylcholine. Cholesterol (5-cholesten-3β-ol) and L-α-phosphatidylcholine (brain, porcine) were purchased from Avanti Polar Lipids Inc. (Alabaster, Ala.); ergosterol (5,7,22-cholestatrien-24β-methyl-3β-ol) was purchased from Steraloids, Inc. (Newport, R.I.). […]
metric: inhibition of the hemolytic activity of KmTx 2 by co-incubation

So what's the measured inhibition of the hemolytic activity of KmTx 2 by co-incubation for this one? CC(C)CCC[C@@H](C)[C@H]1CC[C@H]2[C@@H]3CC=C4C[C@@H](O)CC[C@]4(C)[C@H]3CC[C@]12C
inhibited

So what's the measured inhibition of the hemolytic activity of KmTx 2 by co-incubation for this one? CC(C)[C@@H](C)/C=C/[C@@H](C)[C@H]1CC[C@H]2C3=CC=C4C[C@@H](O)CC[C@]4(C)[C@H]3CC[C@]12C
inhibited
